Exercise: state measured Binding / Expression ratio (45degrees) for each of the binders provided.
- TARGET: 4-1BB (coated on ELISA plate) (UniProt Q07011 24-186, limits assumed)
- ASSAY SUMMARY: ELISA, binding OD450 / expression OD450, after 45 °C 30 min

BINDER	Binding / Expression ratio (45degrees)
8E2 (ligand, also called 4-1BBL variant 8E2 (phagemid clone, bacterial supernatant)) 4-1BBL variant: ACPWAVSGARASPGSAASPRLREGPELSPDDPAGLLDLRQGMFAQLVAQNVLLIDGPLSWYPDPGLAGVSLTGGLSYKEDTKELVVAKAGVYYVFFQLELRRVVAFEGSGSVSLALHLQPLRSAAGAAALALTVDLPPASSEARNSAFGFQGRLLHLSAGQRLGVHLHTEARARHSWQLTQGATVLGLFRVTPEIPAGLPSPRSE	0.388
8B10 (ligand, also called 4-1BBL variant 8B10 (phagemid clone, bacterial supernatant)) 4-1BBL variant: ACPWAVSGARASPGSAASPRLREGPELSPDDPAGLLDLRQGMFAQLVAQNVLLIDGPLSWYTDPGLAGVSLTGGLSYKEDTKELVVAKAGVYYVFFQLELRRVVAGMGSGSVSLALHLQPLRSAAGAAALALTVDLPPASSEARNSAFGFQGRLLHLSAGQRLGVHLHTEARARHSWQLTQGATVLGLFRVTPEIPAGLPSPRSE	0.636

Now examine the next entry.
Field Binding / Expression ratio (45degrees) (entry 4E10 (ligand, also called 4-1BBL variant 4E10 (phagemid clone, bacterial supernatant)) 4-1BBL variant: ACPWAVSGARASPGSAASPRLREGPELSPDDPAGLLDLRQGMFAQLVAQNVLLIDGPLSWYPDPGLAGVSLTGGLSYKEDTKELVVAKAGVYYVFFQLELRRVVAREGSGSVSLALHLQPLRSAAGAAALALTVDLPPASSEARNSAFGFQGRLLHLSAGQRLGVHLHTEARARHAMQLTQGATVLGLFRVTPEIPAGLPSPRSE ) reads 0.885
